Entry source: patent US6342604B1

Target Of Assay: human D3 receptor (Homo sapiens)
Construct: host or cells: CCL 1.3 mouse fibroblasts
Protocol Summary: D3 receptor binding assay (125I-iodosulpiride displacement)
Condition Set: ratio of Ki D2 (3H-spiperone) to Ki D3 (125I-sulpiride)
Measured Parameter: Selectivity Ki D2/Ki D3
Reply briefly: the number, and no unit.

Some entries whose results are on file:
>>> number("CC(C)c1cccc(N2CCN(CCCSc3nccc(O)n3)CC2)c1")
71
>>> number("Oc1ccnc(SCCCN2CCN(c3cccc(C(F)(F)F)c3)CC2)n1")
85
>>> number("Oc1ccnc(SCCCN2CC=C(c3cccc(C(F)(F)F)c3)CC2)n1")
58

Please find the next compound below.
Provide the documented Selectivity Ki D2/Ki D3 with human D3 receptor (Homo sapiens) as the system for Oc1ccnc(SC/C=C/CN2CCN(c3cccc(C(F)(F)F)c3)CC2)n1
61

====

# pKi per entry
Target Of Assay: human D3 receptor (Homo sapiens)
Construct: host or cells: CCL 1.3 mouse fibroblasts
Protocol Summary: D3 receptor binding assay (125I-iodosulpiride displacement)
Condition Set: cloned human D3 receptor, CCL 1.3 mouse fibroblast membranes, 0.1 nM 125iodosulpiride; read-out: Receptor binding D3 125I-sulpiride Ki
Worth noting: pKi values are minus log10 of concentrations stated in mol/L.

>>> number("Oc1ccnc(SC/C=C/CN2CCN(c3cccc(C(F)(F)F)c3)CC2)n1")
8.64

Please find the next molecule below.
Quick one: pKi for CC(C)c1cccc(N2CCN(CCCSc3nccc(O)n3)CC2)c1 ?
8.55

====

# Ki per entry
Target Of Assay: human D3 receptor (Homo sapiens, UniProt P35462)
Construct: host or cells: CCL 1.3 mouse fibroblasts
Sequence (P35462 whole entry): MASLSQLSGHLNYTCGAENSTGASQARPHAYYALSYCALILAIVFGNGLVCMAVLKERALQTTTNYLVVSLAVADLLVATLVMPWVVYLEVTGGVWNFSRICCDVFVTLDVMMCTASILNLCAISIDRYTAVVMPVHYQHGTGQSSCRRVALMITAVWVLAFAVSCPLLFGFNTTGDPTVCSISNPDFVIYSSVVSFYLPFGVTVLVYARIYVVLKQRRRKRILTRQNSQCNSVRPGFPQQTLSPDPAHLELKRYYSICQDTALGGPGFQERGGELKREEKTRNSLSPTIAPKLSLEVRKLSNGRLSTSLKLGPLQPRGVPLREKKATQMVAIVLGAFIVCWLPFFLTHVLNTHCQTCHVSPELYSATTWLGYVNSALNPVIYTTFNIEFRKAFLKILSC
Protocol Summary: D3 receptor binding assay (125I-iodosulpiride displacement)
Give the value, in units of nM, as a plain number.

>>> number("Oc1ccnc(SCCCN2CCN(c3cccc(C(F)(F)F)c3)CC2)n1 [Example 12]")
4.2

Please find the next compound below.
Quick one: Ki for Oc1ccnc(SCCCN2CC=C(c3cccc(C(F)(F)F)c3)CC2)n1 [Example 19] ?
3
